Biological target: UniProtKB P05804
Sequence (P05804 whole entry): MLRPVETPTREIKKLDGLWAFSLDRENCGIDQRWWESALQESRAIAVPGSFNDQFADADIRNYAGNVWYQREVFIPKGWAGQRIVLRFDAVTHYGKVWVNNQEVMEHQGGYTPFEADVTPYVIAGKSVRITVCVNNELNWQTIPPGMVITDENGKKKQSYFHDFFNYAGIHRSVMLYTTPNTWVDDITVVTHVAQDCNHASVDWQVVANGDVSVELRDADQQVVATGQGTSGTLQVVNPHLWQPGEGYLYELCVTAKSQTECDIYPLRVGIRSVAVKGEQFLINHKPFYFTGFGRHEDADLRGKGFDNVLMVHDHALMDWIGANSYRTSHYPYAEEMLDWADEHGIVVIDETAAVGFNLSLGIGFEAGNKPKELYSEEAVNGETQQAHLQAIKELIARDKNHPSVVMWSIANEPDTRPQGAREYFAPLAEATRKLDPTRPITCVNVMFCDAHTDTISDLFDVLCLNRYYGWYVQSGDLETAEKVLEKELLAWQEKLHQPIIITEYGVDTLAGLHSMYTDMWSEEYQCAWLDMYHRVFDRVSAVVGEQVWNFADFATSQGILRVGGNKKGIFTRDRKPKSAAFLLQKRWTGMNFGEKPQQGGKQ
Assay: Enzymatic cleavage by E. coli β-D-glucuronidase (kinetics of drug release, HPLC)
Type: biochemical
Settings: E. coli β-D-glucuronidase in phosphate buffer; 500 μg/mL prodrug, 20 μg/mL E. coli β-D-glucuronidase, phosphate buffer pH 7.2, 37° C.
Protocol: Prodrug 1a (500 μg/mp) was incubated with E. coli β-D-glucuronidase (20 μ/mL). Aliquot samples were analysed by IPLC at different times (FIG. 1: Enzymatic cleavage of prodrug 1a). […] Hydrolysis was investigated by incubating a solution of 500 μg/mL of prodrug 3 and 20 μg/mL of E. coli β-D-glucuronidase in 0.02 M phosphate buffer (pH 7.2) at 37° C. Aliquots (100 μl) were taken at various times and analyzed by HPLC after dilution with 300 μl of eluent.
measureName: half-life at 500 μg/mL

Lookup: # return half-life at 500 μg/mL of COc1cc([C@@H]2c3cc4c(cc3C(OC3OC5COC(C)O[C@H]5C(O)[C@@H]3O)[C@H]3COC(=O)[C@H]23)OCO4)cc(OC)c1OC(=O)N(C)c1cc([N+](=O)[O-])ccc1O[C@@H]1OC(C(=O)O)[C@@H](O)C(O)C1O (stereo partly shown) [prodrug 1a] (system: UniProtKB P05804)
Found: < 25 min

###

Assay: Solubility in water
Format: physicochemical
Conditions: water, in water / aqueous solvents
measureName: solubility (mg/mL)
Numbers only; they are read as mg/mL.

Lookup: Identify measured solubility corresponding to COc1cc([C@@H]2c3cc4c(cc3[C@@H](O[C@@H]3O[C@@H]5CO[C@@H](C)O[C@H]5[C@H](O)[C@H]3O)[C@H]3COC(=O)[C@H]23)OCO4)cc(OC)c1O [etoposide, reference compound]
Found: 0.1
